// data source = paper PMC5365645

- experiment-summary: in vivo
- Set-up: species or system female CD-1 mice
- condition-parameters: female, CD-1, mouse, 12 mg/kg
measured-attribute: bioavailability

bioavailability lookup needed for CC(C)[C@@H](C)[C@@]1(C)CC[C@]2(C)[C@H]3CC[C@@H]4[C@@]5(COC[C@@]4(C)[C@@H](OC[C@](C)(N)C(C)(C)C)[C@H](n4ncnc4-c4ccncc4)C5)C3=CC[C@@]2(C)[C@@H]1C(=O)O , thanks.
> 51%

* * *

- experiment-summary: in vivo
- Set-up: species or system female CD-1 mice
- condition-parameters: female, CD-1, mouse, po, 6.25 mg/kg, AUC0–24
measured-attribute: AUC(0-t) (ng·h/mL)
Kindly answer with a numeric value in ng·h/mL, unit omitted.

AUC(0-t) lookup needed for CC(C)[C@@H](C)[C@@]1(C)CC[C@]2(C)[C@H]3CC[C@@H]4[C@@]5(COC[C@@]4(C)[C@@H](OC[C@](C)(N)C(C)(C)C)[C@H](n4ncnc4-c4ccncc4)C5)C3=CC[C@@]2(C)[C@@H]1C(=O)O , thanks.
8360

* * *

- experiment-summary: In vitro metabolic stability in hepatic microsomes
- Format: in vitro ADME, mouse
- condition-parameters: male mouse liver microsomes, 1 μM; read-out: % remaining after 30 min
measured-attribute: remaining at 0.5 h, 1 µM (%)
Kindly answer with a numeric value in %, unit omitted.

remaining at 0.5 h, 1 µM lookup needed for CC(C)[C@@H](C)[C@@]1(C)CC[C@]2(C)[C@H]3CC[C@@H]4[C@@]5(COC[C@@]4(C)[C@@H](OC[C@](C)(N)C(C)(C)C)[C@H](n4ncnc4-c4ccncc4)C5)C3=CC[C@@]2(C)[C@@H]1C(=O)O [SCY-078] , thanks.
95

* * *

- experiment-summary: In vitro metabolic stability in hepatic microsomes
- Assay type: in vitro ADME
- condition-parameters: both sexes, pooled liver microsomes; human (mixed) liver microsomes, 1 μM; read-out: % remaining after 30 min
measured-attribute: remaining at 0.5 h, 1 µM (%)
Kindly answer with a numeric value in %, unit omitted.

remaining at 0.5 h, 1 µM lookup needed for CC(C)[C@@H](C)[C@@]1(C)CC[C@]2(C)[C@H]3CC[C@@H]4[C@@]5(COC[C@@]4(C)[C@@H](OC[C@](C)(N)C(C)(C)C)[C@H](n4ncnc4-c4ccncc4)C5)C3=CC[C@@]2(C)[C@@H]1C(=O)O , thanks.
61

* * *

- experiment-summary: in vivo
- Set-up: species or system mice, rats, and dogs
- condition-parameters: CD-1 (mouse), Wistar Han (rat), beagle (dog), dog, po
measured-attribute: Cmax

Cmax lookup needed for CC(C)[C@@H](C)[C@@]1(C)CC[C@]2(C)[C@H]3CC[C@@H]4[C@@]5(COC[C@@]4(C)[C@@H](OC[C@](C)(N)C(C)(C)C)[C@H](n4ncnc4-c4ccncc4)C5)C3=CC[C@@]2(C)[C@@H]1C(=O)O , thanks.
~1000 ng/mL

* * *

- experiment-summary: In vitro metabolic stability in hepatic microsomes
- Format: in vitro ADME
- condition-parameters: pooled liver microsomes; male rat liver microsomes
measured-attribute: microsomal CLint at 1 μM (µL/min/mg)
Kindly answer with a numeric value in µL/min/mg, unit omitted.

microsomal CLint at 1 μM lookup needed for CC(C)[C@@H](C)[C@@]1(C)CC[C@]2(C)[C@H]3CC[C@@H]4[C@@]5(COC[C@@]4(C)[C@@H](OC[C@](C)(N)C(C)(C)C)[C@H](n4ncnc4-c4ccncc4)C5)C3=CC[C@@]2(C)[C@@H]1C(=O)O [SCY-078] , thanks.
11
